# test method notes: Stability in buffer at various pH values
# Format: physicochemical
# applied conditions: pH 7.4, 37° C., 4 h
Counter-ions that a name gives are not always drawn.
quantity kind: % test substance after 4 h [F(t = 4 h) × 100/F(t = 0 h)] (%)

For orientation, consider the following solved cases.
CC(C)[C@H](NC(=O)CCN)C(=O)OCCOc1ccc(-c2c(C#N)c(N)nc(SCc3csc(-c4ccc(Cl)cc4)n3)c2C#N)cc1 [Example 2, hydrochloride]
100
N#Cc1c(N)nc(SCc2csc(-c3ccc(Cl)cc3)n2)c(C#N)c1-c1ccc(OCCOC(=O)CC[C@H](NC(=O)CCC(=O)O)C(=O)O)cc1 [Example 9]
100
C[C@@H](NC(=O)[C@@H](N)CCCCN)C(=O)OCCOc1ccc(-c2c(C#N)c(N)nc(SCc3csc(-c4ccc(Cl)cc4)n3)c2C#N)cc1 [Example 12, dihydrochloride]
49
N#Cc1c(N)nc(SCc2csc(-c3ccc(Cl)cc3)n2)c(C#N)c1-c1ccc(OCCOC(=O)CC[C@@H](N)C(=O)NCCN)cc1 [Example 13, dihydrochloride]
24

1 = CC(C)[C@H](NC(=O)[C@@H](N)CCCCN)C(=O)OCCOc1ccc(-c2c(C#N)c(N)nc(SCc3csc(-c4ccc(Cl)cc4)n3)c2C#N)cc1 [Example 1, dihydrochloride]
2 = N#Cc1c(N)nc(SCc2csc(-c3ccc(Cl)cc3)n2)c(C#N)c1-c1ccc(OCCOC(=O)CC[C@H](N)C(=O)NCCN)cc1 [Example 6, dihydrochloride]
Compare reported % test substance after 4 h [F(t = 4 h) × 100/F(t = 0 h)] values for 1 and 2 . Which is lower? Your answer should be the label attached to the chosen record. 2

---

# test method notes: Stability in buffer at various pH values
# Assay type: physicochemical
# applied conditions: pH 4, 37° C., 24 h
Structures can show the parent of a compound that is named as a salt.
quantity kind: % test substance after 24 h [F(t = 24 h) × 100/F(t = 0 h)] (%)

N#Cc1c(N)nc(SCc2csc(-c3ccc(Cl)cc3)n2)c(C#N)c1-c1ccc(OCCOC(=O)[C@H](CO)NC(=O)[C@@H](N)CCCCN)cc1 [Example 5, dihydrochloride]
100
C[C@@H](NC(=O)[C@@H](N)CCCCN)C(=O)OCCOc1ccc(-c2c(C#N)c(N)nc(SCc3csc(-c4ccc(Cl)cc4)n3)c2C#N)cc1 [Example 12, dihydrochloride]
98
N#Cc1c(N)nc(SCc2csc(-c3ccc(Cl)cc3)n2)c(C#N)c1-c1ccc(OCCOC(=O)[C@@H](N)CCC(=O)NCCN)cc1 [Example 7, dihydrochloride]
98
CC(C)C[C@H](NC(=O)[C@@H](N)CCCCN)C(=O)OCCOc1ccc(-c2c(C#N)c(N)nc(SCc3csc(-c4ccc(Cl)cc4)n3)c2C#N)cc1 [Example 11, dihydrochloride]
100
CC(C)[C@H](NC(=O)CCN)C(=O)OCCOc1ccc(-c2c(C#N)c(N)nc(SCc3csc(-c4ccc(Cl)cc4)n3)c2C#N)cc1 [Example 2, hydrochloride]
100
C[C@H](NC(=O)[C@@H](N)CCCNC(=N)N)C(=O)OCCOc1ccc(-c2c(C#N)c(N)nc(SCc3csc(-c4ccc(Cl)cc4)n3)c2C#N)cc1 [Example 14, dihydrochloride]
100
N#Cc1c(N)nc(SCc2csc(-c3ccc(Cl)cc3)n2)c(C#N)c1-c1ccc(OCCOC(=O)CC[C@@H](N)C(=O)NCCN)cc1 [Example 13, dihydrochloride]
99
